The origin of these recorded values is ChEMBL document CHEMBL1126285.

Species: Homo sapiens
Assay: Inhibition of anti-IgE stimulated release of Thromboxane B2 (TXB2) from human chopped lung by 50% of control value
Assay type: functional
Measured Endpoint: pIC50
pIC50 is a log-scale quantity: -log10 of the concentration expressed in molar.

These solved cases illustrate the format of a correct answer.
>>> endpoint_result("COc1ccc2c(OC(C)C)c(C(=O)Nc3nn[nH]n3)sc2c1")
6.52
>>> endpoint_result("COc1ccc2sc(C(=O)Nc3nnn[nH]3)c(OC(C)C)c2c1")
6.52
>>> endpoint_result("COc1ccc2c(c1)c(OC(C)C)c(C(=O)Nc1nn[nH]n1)n2-c1ccccc1")
4.92

API: the following record is the query input.
Query: What value of pIC50 has been recorded for this entry: COc1ccc2sc(C(=O)Nc3nn[nH]n3)c(Oc3ccccc3)c2c1
Result: 5.31

----------
Species on record: Homo sapiens
Assay: Compound was evaluated for the inhibition of serum-opsonized zymosan stimulated TXB2 release from human neutrophil
Assay type: functional
Measured Endpoint: IC50 (µM)
Lab book: enter the figure in µM, no units written.

Query: What value of IC50 has been recorded for this entry: COc1ccc2sc(C(=O)Nc3nnn[nH]3)c(OC(C)C)c2c1
Result: 4.5

----------
Test: Compound was evaluated for the inhibition of serum-opsonized zymosan stimulated superoxide (O2-) release from human neutrophil
Assay type: functional
Measured Endpoint: pIC50
pIC50 is a log-scale quantity: -log10 of the concentration expressed in molar.

Query: What value of pIC50 has been recorded for this entry: COc1ccc2sc(C(=O)Nc3nnn[nH]3)c(OC(C)C)c2c1
Result: 4.84

----------
Species on record: Homo sapiens
Experiment: Inhibition of anti-IgE stimulated release of Thromboxane B2 (TXB2) from human chopped lung by 50% of control value
Assay type: functional
Measured Endpoint: IC50

Query: What value of IC50 has been recorded for this entry: COc1cc2sc(C(=O)Nc3nn[nH]n3)c(Oc3ccccc3)c2cc1OC
Result: < 750 nM

Query: What value of IC50 has been recorded for this entry: COc1cc2sc(C(=O)Nc3nn[nH]n3)c(OCc3ccccc3)c2cc1OC
Result: < 740 nM

Query: What value of IC50 has been recorded for this entry: COc1cc2sc(C(=O)Nc3nn[nH]n3)c(OC(C)C)c2cc1OC
Result: < 750 nM
